Test system: COLO 205 colon
test.method.notes: NCI tumour cell line growth inhibition, 48 h
Recorded TGI, one value per entry.

As a guide, the following entries are already answered.
[[record]]
compound = "Cc1ccc(S(=O)c2cccs2)cc1 (stereo not drawn)"
target_under_test = "COLO 205 colon"
test_value = "> 100 µM"

[[record]]
compound = "CN1CCN(CC(=O)N(C)c2ccc(N=C(c3ccccc3)c3c(O)[nH]c4ccc(C#N)cc34)cc2)CC1"
target_under_test = "COLO 205 colon"
test_value = "12.4 µM"

[[record]]
compound = "O=C1NC(=NCCc2ccc(F)cc2)S/C1=C\\c1ccc2ncccc2c1"
target_under_test = "COLO 205 colon"
test_value = "> 25 µM"


*Q* Give reported TGI value for CCOC(=O)C(C)(NC(=O)c1ccc(NCc2ccc3nc(NC(=O)c4ccccc4)nc(NC(=O)c4ccccc4)c3c2)cc1)C(=O)OCC
*A* > 100 µM

*Q* Provide only the value of recorded TGI for Cc1cc2ncn(-c3nc4ccccc4nc3C(C#N)S(C)(=O)=O)c2cc1C (stereo not drawn)
*A* > 100 µM

*Q* Return TGI (reported value) for this compound: O=C1/C(=C/c2ccc(Cl)c(Cl)c2)CN(C(=O)C(Cl)Cl)C/C1=C\c1ccc(Cl)c(Cl)c1
*A* 0.638 µM

*Q* Give TGI for O=C(CNc1ccccn1)Nn1cnc2ccc(S(=O)(=O)Nc3ccccn3)cc2c1=O
*A* > 100 µM

----------
Some compounds, each annotated with its measured TGI.
System: DMS 273 small cell lung
test.method.notes: NCI tumour cell line growth inhibition, 48 h

Consider the worked cases shown below.
[[record]]
compound = "COC1C2C[C@@H](O)CCC2C(C(=O)OCCl)C[C@H]1O (stereo partly drawn)"
test_value = "> 100 µM"

[[record]]
compound = "COc1ccccc1NC(=O)C1=C(C)NC(C)=C(C(=O)Nc2ccccc2OC)C1c1ccccc1[N+](=O)[O-]"
test_value = "34.9 µM"

[[record]]
compound = "CCCNC(=O)Nc1c([N+](=O)[O-])cc(C(F)(F)F)cc1[N+](=O)[O-]"
test_value = "> 100 µM"

[[record]]
compound = "Cc1ccc(C(=O)CC2(O)C(=O)Nc3c(C)cc(Cl)cc32)cc1 (stereo not drawn)"
test_value = "> 100 µM"

[[record]]
compound = "CC(=O)C1CCN(c2ccccc2)C1 (stereo not drawn)"
test_value = "> 100 µM"


*Q* Name the recorded TGI of the compound listed here: S=c1sc2c(s1)SC(c1ccccc1)CS2 (stereo not drawn)
*A* > 100 µM

*Q* Give a short answer stating reported TGI for CCOc1ccccc1N=Nc1ccc2oc(=O)c(C(C)=O)cc2c1 .
*A* > 100 µM

*Q* Input CN=c1ss/c(=N\C(=S)N(C)C)n1C , output reported TGI.
*A* > 100 µM

*Q* For the compound N#C/C(=C\c1ccncc1)c1csc2ccccc12 , give its measured TGI value.
*A* 73.6 µM

*Q* # return recorded TGI for entry CC(=O)Nc1[nH]n(C)c(=O)c1-c1nnc(C)s1
*A* > 100 µM

*Q* Identify the reported TGI for the following entry. Nc1ccc2n[se]nc2c1
*A* > 100 µM

*Q* Using known records, supply TGI for N#CC(NNC(=O)Cc1ccccc1)c1cccc(O)c1 (stereo not drawn)
*A* > 100 µM

*Q* Supply recorded TGI for Nc1nnc2c(-c3ccccc3)[nH]nc2n1 here.
*A* > 100 µM

*Q* Fill in TGI for record O=C(O/N=C1\CCCC\C1=C/c1ccccc1)c1ccc([N+](=O)[O-])cc1
*A* > 100 µM

*Q* Supply recorded TGI for CC1=CC2C(C=C1)S(=O)(=O)N1CC21c1ccccc1 (stereo not drawn) here.
*A* > 100 µM

----------
Test system: SK-MEL-28 melanoma
test.method.notes: NCI tumour cell line growth inhibition, 48 h
TGI values for the molecules below.
Numbers only; they are read as µM.

# annotated cases, reported TGI shown
[[record]]
molecule = "O=C1Nc2ccc(Cl)cc2/C1=C\\c1c(-c2ccc(Cl)cc2)nc2sc(C3CC3)nn12"
target_under_test = "SK-MEL-28 melanoma"
test_value = 13.7

[[record]]
molecule = "C=C1CC(C)(COc2ccc3c(C)c(Cl)c(=O)oc3c2)OC1=O (stereo not given)"
target_under_test = "SK-MEL-28 melanoma"
test_value = 7.59

[[record]]
molecule = "Clc1nccc2c(-c3csc(-c4c[nH]c5ccc(Br)cc45)n3)c[nH]c12"
target_under_test = "SK-MEL-28 melanoma"
test_value = 4.16


Let us examine a further case.
*Q* Please supply the value of reported TGI for the item COc1cnc2c(c1)C(=O)c1c-2n(CCCNC2=NCCS2)c(=O)c2cc(F)ccc12
*A* 24.9

----------
System: HCC-2998 colon
test.method.notes: NCI tumour cell line growth inhibition, 48 h; in the data active means GI50 below about 0.43 µM; inactive means the rest
// one of active, inactive, no free text

See these solved cases before continuing.
[[record]]
compound = "CSC1=NC(=Nc2c(C)cccc2C)C2(CCC(C(C)(C)C)CC2)N1c1ccc(Cl)cc1 (stereo not given)"
target_under_test = "HCC-2998 colon"
assigned_category = "inactive"

[[record]]
compound = "CCOC(=O)[C@@H](C)C[C@H](Cc1ccccc1)NC(=O)c1csc([C@@H](C[C@H](C(C)C)N(C)C(=O)[C@@H](NC(=O)[C@H]2CCCCN2C)C(C)(C)CC)OC(C)=O)n1"
target_under_test = "HCC-2998 colon"
assigned_category = "active"

[[record]]
compound = "COc1cc(/C=C2\\C(=O)N(Cc3ccc(Cl)cc3)c3ccccc32)cc(OC)c1OC"
target_under_test = "HCC-2998 colon"
assigned_category = "inactive"

[[record]]
compound = "NC(N)=N/N=C/c1c(-c2ccsc2)nc2n1CCS2"
target_under_test = "HCC-2998 colon"
assigned_category = "inactive"

[[record]]
compound = "C[C@@]1([C@H](OC(=O)c2ccccc2)C(N)=O)CO1"
target_under_test = "HCC-2998 colon"
assigned_category = "inactive"

[[record]]
compound = "COc1cc(/C=C/C(=O)c2cccc(-n3cc(-c4cc(OC)c(OC)c(OC)c4)[nH]c3=O)c2)cc(OC)c1OC"
target_under_test = "HCC-2998 colon"
assigned_category = "inactive"


*Q* # lookup: test call for COC(=O)NC1C(C)OC(OC2C/C=C(/C)C3C=CC4C(OC5CC(OC6CCC(OC7CC(O)C(OC8CCC(O)C(C)O8)C(C)O7)C(C)O6)C(OC(C)=O)C(C)O5)C(C)CC(C)C4C3(C)/C(O)=C3/C(=O)OC4(CC(C=O)=CC(O)C4/C=C\2C)C3=O)CC1(C)[N+](=O)[O-] (stereo not given)
*A* active

*Q* Which outcome was assigned to Oc1ccc(Cl)cc1C(c1cc(Cl)ccc1O)C(Cl)(Cl)Cl in this test?
*A* inactive

*Q* Query: recorded result category for O=C1/C(=C/c2ccc(Cl)c(Cl)c2)CN(C(=O)C(Cl)Cl)C/C1=C\c1ccc(Cl)c(Cl)c1 in this test
*A* active

*Q* Tell me the assay call for CC1CC2C3CCC4=CC(=O)C=CC4(C)C3(F)C(O)CC2(C)C1(O)C(=O)COP(=O)(O)O (stereo not given) please.
*A* inactive

----------
System: RXF-631 renal
test.method.notes: NCI tumour cell line growth inhibition, 48 h
result.type: TGI (µM)
Record the value in µM, omitting the unit from your answer.

*Q* State, in one line, measured TGI of N#CCCn1[nH]c(=O)c(Cl)c(Cl)c1=O
*A* 37.1

*Q* Quickly give me recorded TGI for COc1cc2c(c(OC)c1OC)-c1ccc(SC)c(=O)cc1[C@@H](NCc1ccc(F)cc1)CC2
*A* 52.4

*Q* Please give measured TGI of the following entry: COC(=O)NC1C(C)OC(OC2C/C=C(/C)C3C=CC4C(OC5CC(OC6CCC(OC7CC(O)C(OC8CCC(O)C(C)O8)C(C)O7)C(C)O6)C(OC(C)=O)C(C)O5)C(C)CC(C)C4C3(C)/C(O)=C3/C(=O)OC4(CC(C=O)=CC(O)C4/C=C\2C)C3=O)CC1(C)[N+](=O)[O-] (stereo unspecified)
*A* 10.8

----------
Tested on: SK-MEL-2 melanoma
test.method.notes: NCI tumour cell line growth inhibition, 48 h
result.type: TGI (µM)
Express it in µM; write the number only.

Use these answered entries as a reference point.
[[record]]
molecule = "COc1cc2oc(-c3cccc(C(=O)Nc4ccc(Cl)cc4)c3)cc(=O)c2c(OC)c1OC"
test_value = 9.22

[[record]]
molecule = "CCCCN(CCCC)C(=O)[C@H](CC)[C@@H]1CC[C@@H](C)[C@@H]([C@H](C)[C@@H](O)[C@@H](C)C(=O)[C@H](CC)C2O[C@]3(C=C[C@@H](O)[C@]4(CC[C@@](C)([C@H]5CC[C@](O)(CC)[C@H](C)O5)O4)O3)[C@H](C)C[C@@H]2C)O1 (stereo partly drawn)"
test_value = 7.53

[[record]]
molecule = "C=C1CC(C)(COc2ccc3c(C)c(Cl)c(=O)oc3c2)OC1=O (stereo not drawn)"
test_value = 4.47


Attention now turns to another entry.
*Q* Dear colleague, please send me the reported TGI for FC(F)(F)c1ccc2c(c1)N(CCCNCCN1CCOCC1)c1ccccc1S2 when you can.
*A* 13.9

The values you see were collected from PubChem BioAssay (NCI).
